- tested on: Transthyretin (Homo sapiens, UniProt P02766, V50M)
- test description: Binding affinity to N-terminal hexa-histidine tagged TTR V30M mutant (unknown origin) expressed in Escherichia coli assessed as dissociation constant at 60 uM by ITC assay
Threshold-based label: Kd under 2000 nM gives 1 (yes), Kd not under 2000 nM gives 0 (no).

Q: State whether 2000 nM exceeds Kd recorded for Oc1cc(O)cc(/C=C/c2ccc(O)cc2O)c1 .
A: 1 (yes)

Q: Entry COc1cc(/C=C/c2ccc(O)cc2)cc(OC)c1 please
A: 0 (no)

Q: Entry COc1cc(/C=C/c2cc(O)cc(O)c2)ccc1O please
A: 1 (yes)

Q: Entry Oc1cc(O)cc(/C=C/c2c(O)cccc2O)c1 please
A: 0 (no)

Q: Entry Oc1cc(O)cc(/C=C/c2ccc(O)c(O)c2)c1 please
A: 1 (yes)

Q: Entry Oc1ccc(/C=C/c2cc(O)cc(O)c2)cc1 please
A: 1 (yes)

Q: Entry COc1cc(O)cc(/C=C/c2ccc(O)cc2)c1 please
A: 0 (no)

Reference source: ChEMBL document CHEMBL5370664
